Known Population Tubulin-Different-Phenotype (%) of a selection of compounds
Tested on: U2OS
Test: Multiplex assay against U2OS
Assay type: toxicity, cell-based
Conditions: human, 24 h, 10 µM, compound concentration 10 uM, replicate 2
Numbers only here, please. The scale is %.

1) C[C@@H](NCCCc1cccc(C(F)(F)F)c1)c1cccc2ccccc12.Cl [CINACALCET HYDROCHLORIDE]	82
2) Cc1nc(-c2cn3c(n2)-c2ccc(-c4cnn(C(C)(C)C(N)=O)c4)cc2OCC3)n(C(C)C)n1	20
3) COc1cc(-n2cnc3cc(-c4ccc(Cl)cc4)sc3c2=O)ccc1OCCN1CCCC1	81

Now for a further compound.
Provide value of Population Tubulin-Different-Phenotype (%) for this record tested with U2OS: c1cn2cc(-c3ccc4cn[nH]c4c3)nc(Nc3ccc(N4CCOCC4)cc3)c2n1 20

Data provenance: ChEMBL document CHEMBL4689842
